# Subject of test: Recombinant human HSD17B13 enzyme (Homo sapiens)
# Sequence (Q7Z5P4 20-300): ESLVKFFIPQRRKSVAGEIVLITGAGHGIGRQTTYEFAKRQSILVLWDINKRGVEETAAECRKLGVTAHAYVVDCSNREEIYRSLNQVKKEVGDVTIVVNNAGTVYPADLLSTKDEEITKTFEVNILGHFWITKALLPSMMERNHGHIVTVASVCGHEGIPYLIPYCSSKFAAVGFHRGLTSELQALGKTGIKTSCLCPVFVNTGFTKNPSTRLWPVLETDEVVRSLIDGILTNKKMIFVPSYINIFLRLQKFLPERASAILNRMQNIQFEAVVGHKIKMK
# Assay name: HSD17b13 NAD(P)H-Glo biochemical assay
# Cond: 50 uM estradiol, 1 mM NAD+, NAD(P)H-Glo luminescence; read-out: HSD17β13 IC50
pIC50: −log10 of the molar value.
Readout type: pIC50

Answered cases to consult:
Compound	Subject of test	Readout type	Measurement
Oc1cc(-c2nc3ccc(-c4ccc(O)c(Cl)c4)cc3o2)ccc1F	Recombinant human HSD17B13 enzyme (Homo sapiens)	pIC50	6.00 to 7.00
N#CCC1(NC(=O)c2ccc3oc(-c4cc(C(F)(F)F)c(F)c(O)c4F)nc3c2)CCC1	Recombinant human HSD17B13 enzyme (Homo sapiens)	pIC50	> 7.00
CN(c1cc2c(cn1)c(-c1cc(C(F)(F)F)c(F)c(O)c1F)nn2C)C1CCOCC1	Recombinant human HSD17B13 enzyme (Homo sapiens)	pIC50	> 7.00
Cn1nc(-c2cc(C(F)(F)F)c(F)c(O)c2F)c2cnc(N3CCC(O)(c4ccncc4)CC3)nc21	Recombinant human HSD17B13 enzyme (Homo sapiens)	pIC50	> 7.00
COC1(C)CCN(c2ncc3c(-c4cc(C(F)(F)F)c(F)c(O)c4F)nn(C)c3n2)CC1	Recombinant human HSD17B13 enzyme (Homo sapiens)	pIC50	> 7.00
Cn1nc(-c2cc(C(F)(F)F)c(F)c(O)c2F)c2ccc(N3CCOCC34CC4)nc21	Recombinant human HSD17B13 enzyme (Homo sapiens)	pIC50	> 7.00
Cn1nc(-c2cc(C(F)(F)F)c(F)c(O)c2F)c2cnc(N3CCOCC3C3CCOCC3)cc21 (stereo not shown)	Recombinant human HSD17B13 enzyme (Homo sapiens)	pIC50	> 7.00
O=C(NC1CCCC1)c1ccc2oc(-c3cc(O)c(F)c(F)c3)nc2c1	Recombinant human HSD17B13 enzyme (Homo sapiens)	pIC50	> 7.00
Oc1c(F)c(-c2nn(C3COC3)c3cc(N4CCOCC45CC5)ncc23)cc(C(F)(F)F)c1F	Recombinant human HSD17B13 enzyme (Homo sapiens)	pIC50	> 7.00
O=C(NC1CCCCC1)c1ccc2oc(-c3cc(O)c(F)c(F)c3)nc2c1	Recombinant human HSD17B13 enzyme (Homo sapiens)	pIC50	> 7.00

Could you share which pIC50 value was measured for `CS(=O)(=O)N1CCN(c2ccc3c(-c4cc(C(F)(F)F)cc(O)c4F)n[nH]c3c2)CC1` ?
4.52 to 6.00

Tell me the measured pIC50 of `Cn1nc(-c2cc(C(F)(F)F)c(F)c(O)c2F)c2cnc(N(Cc3ccccc3)C3CCOCC3)nc21` , please.
> 7.00

Item under review: `O=C(NC12COC(C1)C2)c1ccc2oc(-c3cc(C(F)(F)F)c(F)c(O)c3F)nc2c1` . Reported pIC50?
6.00 to 7.00
